These entries and their values trace back to patent US20120020915A1.

property-name: melting point

| compound | reported |
| --- | --- |
| Cl.Clc1ccc(CC[C@@]2(Cn3ccnc3)OC[C@@H](CSc3ccc4ccccc4c3)O2)cc1 | 156 to 157 °C |
| Cl.Ic1ccc(CCC2(Cn3ccnc3)OCCO2)cc1 | 241 to 243 °C (dec.) |
| Cl.Clc1ccc(CCCCn2ccnc2)cc1 | 121 to 122 °C |
| Cl.O=C(Cn1ccnc1)C12CC3CC(CC(C3)C1)C2 | 261 to 262 °C |
| Cl.OC(CCc1ccc(Br)cc1)Cn1ccnc1 (racemic) | 174 to 175 °C |
| Cl.Clc1ccc(CC[C@@]2(Cn3ccnc3)OC[C@@H](COc3ccc(-c4ccccc4)cc3)O2)cc1 | 162 to 163 °C |
| Cl.FC(F)(F)c1ccc(CCCCn2ccnc2)cc1 | 110 to 111 °C |
| Cl.OC(CCc1ccccc1)Cn1ccnc1 (racemic) | 56 to 57 °C |
| Cl.OC(CCc1ccc(I)cc1)Cn1ccnc1 (racemic) | 196 to 197 °C |
| COc1ccc(OCC2CO[C@@](CCc3ccc(Cl)cc3)(Cn3ccnc3)O2)cc1.Cl (stereo in doubt) | 128 to 129 °C |
